target: ALK2 R206H (GST-tagged mutant ALK2) (Homo sapiens, UniProt Q04771, R206H); construct: purchased Carna Bioscience or ThermoFisher 09-148 or PV6232; assay: ALK binding assay (LANTHASCREEN TR-FRET competitive binding, displacement of Kinase Tracer 178); conditions: ALK2 R206H, LANTHASCREEN TR-FRET competitive binding; read-out: Binding Assay (IC50)
Sequence (Q04771 21-509 R206H): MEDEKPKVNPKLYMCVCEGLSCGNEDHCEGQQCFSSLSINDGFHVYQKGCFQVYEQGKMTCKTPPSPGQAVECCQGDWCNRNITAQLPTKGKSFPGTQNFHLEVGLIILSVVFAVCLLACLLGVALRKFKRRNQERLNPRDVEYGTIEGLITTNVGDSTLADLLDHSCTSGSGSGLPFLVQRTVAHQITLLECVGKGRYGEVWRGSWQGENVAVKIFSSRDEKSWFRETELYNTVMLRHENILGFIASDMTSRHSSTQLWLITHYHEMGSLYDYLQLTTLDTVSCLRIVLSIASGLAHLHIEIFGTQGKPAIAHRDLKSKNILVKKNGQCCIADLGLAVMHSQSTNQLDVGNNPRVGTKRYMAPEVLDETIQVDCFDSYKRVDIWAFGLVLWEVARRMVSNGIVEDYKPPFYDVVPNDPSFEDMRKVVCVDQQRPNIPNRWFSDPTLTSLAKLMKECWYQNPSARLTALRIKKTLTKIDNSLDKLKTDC
pIC50: −log10 of the molar value.
Quick reference: pIC50 of the listed items.

Cc1cc(-c2cc3c(N4CCN(C(=O)C5CC5)CC4)ccnn3c2)ccc1[C@H]1CCN(C(C)C)C1 > 8.00

Short answer for `[2H]C([2H])([2H])C([2H])([2H])OC(=O)N1CCN(c2ccnn3cc(-c4ccc([C@]5(OCC)CCCNC5)cn4)cc23)CC1` : pIC50 was > 8.00

Short answer for `CC(C)N1CC(Oc2ccc(-c3cc4c(N5CCN(C(=O)C6CC6)CC5)ccnn4c3)cc2)C1` : pIC50 was > 8.00

Short answer for `CCN1CC(c2ccc(-c3cc4c(N5CCN(C(=O)C6CC6)CC5)ccnn4c3)cc2)C1` : pIC50 was > 8.00
